Documented yeast fitness across a set of variants
B1: tRNA (parent)
chain: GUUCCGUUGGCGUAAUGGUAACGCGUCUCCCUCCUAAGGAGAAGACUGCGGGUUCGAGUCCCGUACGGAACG

Variants of: B1
Test: yeast fitness relative to wild type (ratio to wild type); higher = fitter; tRNA-Arg(CCU), competitive growth, 37 C, YPD
Fewer inactive variants are shown than the library holds.
measurement_name: yeast fitness

                              input_sequence  qualifier  measured_result
 0  GUUCCGUUGGCGUAAUGGAAACGCGUCUCCCUCCUAUGGAGAAGACUGCGGGUUCGAGUCCCGUACGGAACG          =            0.747
 1  GUUCCGUUGGCGUAAUGGUAACGCGUCUCCCUCCUAAGGAGAAGAGUGCGGGUUCGAGUCCCGUCCGGAACG          =             0.97
 2  GUUCCGUUGGCGUAAUGGUAACGCGUGUCCCUCCUAGGGAGAAGACUGCGGGUUCGAGUCCCGUACGGUACG          =            0.537
 3  GUUCCGUUGGCCUAAUGGUAACGCGUCUCCCUCCUAGAGAGAAGUCUGCGGGUUCGAGUCCCGUACGGAGCG          =            0.567
 4  GUUCCGUUGGCGUAAUGAUAAAGCGUCUCCCUCCUACGGACAAGACUGCGGGUUGGAGUCCCGAACGGAACG          ≤              0.5
 5  GUUCCGUUGGCGUAAUGGUAACGCGUCUCCCUCCUAAGCAGAAGACUGCGGGUUCGAGUGCCGUACCGAACG          ≤              0.5
 6  GUUCCGUUGGCGUAAUGGUAAAGCGUCUUCCUCCUAAGGAGAAGACUGCGGGUUCGAGUCCCGUAUGGAACG          ≤              0.5
 7  GUUCCGUUGGCGUAAUCGUAACGCGUCUCCCUCCUAAGGAGAAGACUGCGGGUUCGAGUCCCGUACCGAACG          =            0.723
 8  GCUCCGUUGGCGUAAUGGUAACGCGUCUCCCUCCAAAGGAGAAGACUGCGGGUUCGAGUACCGUACGGAACG          ≤              0.5
 9  GUUUCGUUGGCGUAAUGGUAACGCGUCUCCCUGCUAAGGAGAAGACUGCGGGUUCGAGUCCCGUACGGAACG          =            0.722
10  GUUCAGUUGGCGUAAUGGUAACGCGUCUCCCUCCUAAGGACAAGACUGCGGGUUCGAGUCCCGUACGGAACG          =            0.779
11  GUUCCGUUGGCGUAAUGGUAUCGCGGCUCCCUCCUAAGGAGAAGACUGCGGGUUCGAGUCCCGUACGGACCG          =            0.729
12  GUUCCGUUGGCGUAAUGGUAACGCGUCUACCUCCUAAGGAGAAGACUGCGGGUUCGAGUCCUGUACGGAACG          =            0.723
13  GUUCCGUUGGCGUAAUGGUAACGCGUCUCCCUCCUAAGGAGAAGACUACGAGUUCGAGUCCCGUACGGAACG          =             1.04
14  GUUCCGUUGGCCUAAUGGUCACGCGUCUCCCUCCUAAGGAGAAGACAGCGGGUUCGAGUCCCGUACGGAGCG          =            0.755
15  GUUGCGUUGGCGUAAUGGUAAGGUGUCUCCCUCCUAAGGAAAAGACUGCGGGUUCGUGUCCCGUAAGGAACG          ≤              0.5
